# TESTED_TARGET: Sialic acid-binding Ig-like lectin 9 (Homo sapiens) (UniProt Q9Y336)
# Sequence (Q9Y336 whole entry): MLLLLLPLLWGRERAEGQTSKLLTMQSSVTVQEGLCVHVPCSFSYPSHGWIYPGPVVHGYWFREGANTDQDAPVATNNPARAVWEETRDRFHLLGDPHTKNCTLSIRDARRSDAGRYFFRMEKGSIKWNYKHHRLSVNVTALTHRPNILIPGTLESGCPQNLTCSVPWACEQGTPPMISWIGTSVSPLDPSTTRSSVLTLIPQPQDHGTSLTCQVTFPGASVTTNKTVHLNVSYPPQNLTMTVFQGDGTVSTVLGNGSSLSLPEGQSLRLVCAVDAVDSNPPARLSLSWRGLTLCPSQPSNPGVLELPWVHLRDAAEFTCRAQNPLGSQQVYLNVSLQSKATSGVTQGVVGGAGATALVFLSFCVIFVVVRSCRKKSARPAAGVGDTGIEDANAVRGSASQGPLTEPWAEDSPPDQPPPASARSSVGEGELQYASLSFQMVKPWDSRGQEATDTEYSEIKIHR
# ASSAY_OVERVIEW: Hs-Siglec9 ALPHAscreen SOP 20170721
# Parameters: scale not given: direction of the effect not stated beside the values
# ASSAY_CONDITIONS: 10 µM
MEASURE_NAME: Percent Effect (%)
Only the number, expressed in %, is required.

Some molecules with known Percent Effect results, for comparison:
MOLECULE	READOUT_UNITS	Percent Effect
CC(C)NC(=O)Nc1ccc(CNCc2cccc(OC(F)F)c2)cc1	%	-3.29
Cc1nn(C)c(C)c1C1CCCN1C(=O)c1ccc(Cl)o1 (stereo unspecified)	%	-6.5
CNc1nc(C)c(C(=O)N2CCCCC2CN2CCCCCC2)s1 (stereo unspecified)	%	0.892

Percent Effect in this record for "COCC(=O)N1CCC(c2cccc(Cc3ccc(F)cc3)n2)CC1" : -1.91

Percent Effect in this record for c1csc(-c2nc(CNC3CCc4ncnn4C3)cs2)c1 (stereo unspecified) : 2.55

Percent Effect in this record for "COc1ccc(-c2cnc(CN3CCn4c(C)nnc4C3)o2)cc1" : 6.41

Percent Effect in this record for "O=C(CCc1ccccc1F)NS(=O)(=O)c1ccc2c(c1)OCCCO2" : 1.9
